# MEASUREMENT TARGET: UniProt:Q96P20
# ASSAY PROCEDURE: Evaluation of NLRP3 inflammasome inhibitory activity (inhibition of IL-1β production in LPS/Nigericin-stimulated THP1-Null cells)
# CONDITIONS: IL-1β production in THP1-Null cells, PMA, LPS 1 μg/mL, Nigericin 7.5 μmol/L, AlphaLISA
pIC50: −log10 of the molar value.
Given measured pIC50, output YES if it is greater than or equal to 7 and NO if not.

Field: example entries. Status: answers known.
# COMPOUND, ASSIGNED CATEGORY
data = [
    ("Cc1cc(Br)cc(C)c1-n1cc2c(=O)[nH]c(N3CCc4cccnc43)nc2n1 [Example 340]", "NO"),
    ("Cc1cc(Br)cc(C)c1-n1cc2c(=O)[nH]c(NC3COC3)nc2n1 [Example 274]", "NO"),
    ("CNc1nc2nn(-c3c(C)cc(Br)cc3C)cc2c(=O)[nH]1 [Example 185]", "YES"),
]

Prompt: Can Cc1ccc(-n2cc3c(=O)[nH]c(N4CCOCC4)nc3n2)c(C)c1 [Example 126] be said to have pIC50 at or above 7?
Completion: YES

Prompt: pIC50 >= 7 for O=c1[nH]c(N2CCCC2)nc2nn(-c3ccc(Cl)cc3Cl)cc12 [Example 127] ?
Completion: YES

Prompt: Given COC1CCN(c2nc3nn(-c4c(C)cc(C)cc4C)cc3c(=O)[nH]2)C1 (racemic) [Example 93] , state whether its pIC50 is at least 7.
Completion: YES

* * *

# MEASUREMENT TARGET: NLRP3 inflammasome (Homo sapiens (Human), UniProt Q96P20)
# Sequence (Q96P20 whole entry): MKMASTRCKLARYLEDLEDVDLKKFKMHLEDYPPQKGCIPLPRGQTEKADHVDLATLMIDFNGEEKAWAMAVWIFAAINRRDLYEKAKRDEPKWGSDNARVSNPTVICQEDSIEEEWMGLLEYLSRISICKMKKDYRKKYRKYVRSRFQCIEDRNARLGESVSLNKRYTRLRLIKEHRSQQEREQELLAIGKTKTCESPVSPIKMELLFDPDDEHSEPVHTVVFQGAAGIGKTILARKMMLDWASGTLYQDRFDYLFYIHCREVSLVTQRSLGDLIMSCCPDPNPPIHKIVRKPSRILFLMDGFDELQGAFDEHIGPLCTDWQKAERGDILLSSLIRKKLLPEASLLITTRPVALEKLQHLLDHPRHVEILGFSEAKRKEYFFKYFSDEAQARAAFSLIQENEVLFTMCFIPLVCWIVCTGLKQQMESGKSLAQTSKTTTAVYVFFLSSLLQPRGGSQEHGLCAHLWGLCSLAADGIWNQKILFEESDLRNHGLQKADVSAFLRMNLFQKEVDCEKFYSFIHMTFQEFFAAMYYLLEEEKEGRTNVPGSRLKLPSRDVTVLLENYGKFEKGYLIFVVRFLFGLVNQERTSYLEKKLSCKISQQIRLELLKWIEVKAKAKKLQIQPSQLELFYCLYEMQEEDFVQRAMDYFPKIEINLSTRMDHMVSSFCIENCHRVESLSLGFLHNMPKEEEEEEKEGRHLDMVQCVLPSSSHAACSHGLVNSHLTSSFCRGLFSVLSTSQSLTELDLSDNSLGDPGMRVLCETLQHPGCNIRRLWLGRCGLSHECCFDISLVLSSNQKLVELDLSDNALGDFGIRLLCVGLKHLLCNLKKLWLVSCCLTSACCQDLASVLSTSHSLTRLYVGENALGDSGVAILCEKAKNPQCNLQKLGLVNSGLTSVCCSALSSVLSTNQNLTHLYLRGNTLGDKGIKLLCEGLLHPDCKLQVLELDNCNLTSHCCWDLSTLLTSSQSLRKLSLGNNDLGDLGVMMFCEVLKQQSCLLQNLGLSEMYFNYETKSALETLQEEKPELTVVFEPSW
# ASSAY PROCEDURE: Evaluation of NLRP3 inflammasome inhibitory activity (inhibition of IL-1β production in LPS/Nigericin-stimulated THP1-Null cells)
# CONDITIONS: IL-1β production in THP1-Null cells, PMA, LPS 1 μg/mL, Nigericin 7.5 μmol/L, AlphaLISA
MEASURED ATTRIBUTE: IC50 (nM)
The reply should be a number in nM, with the unit left off.

Look over these answered cases.
# GIVEN SMILES, MEASUREMENT TARGET, IC50 / nM
rows = [
    ("Cc1ccc(C(F)(F)F)c(-n2cc3c(=O)[nH]c(N4CCOCC4)nc3n2)c1", "NLRP3 inflammasome (Homo sapiens (Human), UniProt Q96P20)", 270),
    ("CNc1nc2nn(-c3ccccc3C)cc2c(=O)[nH]1", "NLRP3 inflammasome (Homo sapiens (Human), UniProt Q96P20)", 1700),
]

Prompt: Looking for the measured IC50 of Cc1cc(Br)ccc1-n1cc2c(=O)[nH]c(N3CCN(c4ncccn4)CC3)nc2n1 , can you help?
Completion: 21

Prompt: # IC50 lookup, item O=c1[nH]c(N2CCOCC2)nc2nn(-c3ccc(Br)cc3C(F)F)cc12
Completion: 68

Prompt: May I ask what IC50 has been recorded for COCc1cc(Cl)ccc1-n1cc2c(=O)[nH]c(N3CC(F)(F)C3)nc2n1 ?
Completion: 22

Prompt: I have this molecule here, [2H]C([2H])([2H])Nc1nc2nn(-c3c(C)cc(Br)cc3C)cc2c(=O)[nH]1 , and I need its recorded IC50.
Completion: 9.4

Prompt: What does the data say about its IC50? Entry: COc1cc(C)c(-n2cc3c(=O)[nH]c(N4CCCC4)nc3n2)c(C)c1
Completion: 16

Prompt: For the molecule shown here, C[C@@H]1COCCN1c1nc2nn(-c3ccc(C4CC4)cc3C(F)(F)F)cc2c(=O)[nH]1 , give the reported IC50.
Completion: 5.5
